Test system: Saccharomyces cerevisiae BY4741 SeMeCo community
experimental_details: z-score of subpopulation abundance vs DMSO median, subpopulation auxotrophic for HL; higher = larger share of this subpopulation than in DMSO controls
test_conditions: 10 µM; 24 h; SM minimal medium; subpopulation (auxotrophy): HL
Where a name gives a salt, the structure may show the parent alone.
Decision: z-score of subpopulation abundance compared against 0.4; not below it gives true, below it gives false.

Q: Exam item: decide whether the reported z-score of subpopulation abundance for CN[C@@H]1[C@@H](O)[C@@H](O[C@@H]2[C@@H](O)[C@H](O[C@H]3O[C@H](CN)[C@@H](O)[C@H](O)[C@H]3O)[C@@H](N)C[C@H]2NC(=O)[C@@H](O)CN)OC[C@]1(C)O [Isepamicin Sulphate] is at least 0.4.
Result: false

Q: Check if z-score of subpopulation abundance >= 0.4 (inclusive). Item: CN(C)c1ccc(O)c2c1C[C@H]1C[C@H]3[C@H](N(C)C)C(=O)C(C(N)=O)=C(O)[C@@]3(O)C(=O)C1=C2O [Minocycline HCl]
Result: true

Q: Say whether CN1CCc2cc3c(cc2C(=O)Cc2ccc4c(c2C1)OCO4)OCO3 shows z-score of subpopulation abundance of 0.4 or more.
Result: true

Q: Hi team, for CCCN1CCCC[C@H]1C(=O)Nc1c(C)cccc1C [Ropivacaine HCl] , is the recorded z-score of subpopulation abundance at or above 0.4?
Result: false

Q: Given the entry Cc1cc(C)nc(NS(=O)(=O)c2ccc(N)cc2)n1 [Sulfamethazine] , answer whether its z-score of subpopulation abundance meets or surpasses 0.4.
Result: false

----------
System: Saccharomyces cerevisiae BY4741 SeMeCo community
experimental_details: z-score of subpopulation abundance vs DMSO median, subpopulation auxotrophic for HLUM; higher = larger share of this subpopulation than in DMSO controls
test_conditions: 10 µM; 24 h; SM minimal medium; subpopulation (auxotrophy): HLUM
Structures can show the parent of a compound that is named as a salt.
Exercise: state measured z-score of subpopulation abundance for each of the compounds provided.

Q: Under Saccharomyces cerevisiae BY4741 SeMeCo community: report z-score of subpopulation abundance of NC[C@H]1O[C@H](O[C@H]2[C@H](O)[C@@H](O[C@H]3O[C@H](CO)[C@@H](O)[C@H](N)[C@H]3O)[C@H](N)C[C@@H]2N)[C@H](O)[C@@H](O)[C@@H]1O [Kanamycin sulfate] .
Result: -0.1

Q: Write z-score of subpopulation abundance of COc1ccccc1OCC(O)CN1CCN(CC(=O)Nc2c(C)cccc2C)CC1 (stereo not given) [Ranolazine] ; system used: Saccharomyces cerevisiae BY4741 SeMeCo community
Result: 0.5

Q: Lab note: record z-score of subpopulation abundance of Cc1ncc([N+](=O)[O-])n1CC(O)CCl (stereo not given) tested on Saccharomyces cerevisiae BY4741 SeMeCo community.
Result: 0.77

Q: Please respond with reported z-score of subpopulation abundance (system Saccharomyces cerevisiae BY4741 SeMeCo community) for CCn1cc(C(=O)O)c(=O)c2cc(F)c(N3CCNCC3)nc21 [Enoxacin Sesquihydrate] .
Result: -0.27

Q: Name the recorded z-score of subpopulation abundance of CN(CCOc1ccc(NS(C)(=O)=O)cc1)CCc1ccc(NS(C)(=O)=O)cc1 [Dofetilide] , assay system Saccharomyces cerevisiae BY4741 SeMeCo community.
Result: -0.1

The reported measurements were obtained from the supplement of paper PMC8975748.
